Molecular target: RAC-alpha serine/threonine-protein kinase (Homo sapiens)
Assay: HTS Assay for Inhibitors of Akt Phophorylation: Primary Screen
Conditions: Neuro2A IGF-stimulated pAkt S473 HTRF, 20 min; at 50 µM, hits give low values
Out of some 360,000 compounds screened, about 1,100 (0.31%) were called active. The entries come from a sample that favours actives as a whole.
measurement.type: activity change

Answered examples (8):
>>> result("CCOC(=O)NN1C(=O)c2ccccc2NC1c1ccccc1O (stereo unspecified)")
"inactive"
>>> result("CCCCCNC(=O)C(c1ccc(OC)cc1)n1c(=O)c(-c2ccccc2)nc2ccccc21 (stereo unspecified)")
"inactive"
>>> result("CCOCCn1c(-c2ccccc2)nc2ccccc21")
"inactive"
>>> result("COc1ccc(-c2nc3ccccc3n2CCC(C)C)cc1OC")
"-7.53% (inactive)"
>>> result("CCN(CC)C(=O)CSc1ncnc2c1cnn2-c1ccccc1")
"-110% (active)"
>>> result("O=C(c1ccc2c(c1)N(Cc1ccc(F)cc1)C(=O)c1ccccc1S2(=O)=O)N1CCN(c2ccccn2)CC1")
"inactive"
>>> result("COC(=O)[C@@]12C[C@@H](CC(=O)N3CCC(c4ccccc4)CC3)C(=O)N(Cc3ccccc3)C1=CCC(C)(C)C2")
"inactive"
>>> result("CC(C)c1cc(Cn2c3ccccc3c(=O)n2C(C)Cn2cc(C3CC3)nn2)on1 (stereo unspecified)")
"inactive"

Summary: `O=C(CCCn1c(=O)oc2ccccc21)Nc1cccnc1` , RAC-alpha serine/threonine-protein kinase (Homo sapiens), activity change = 5.91% (inactive)

Summary: Cc1ccccc1CN1C(=O)CSCC1(C)C(=O)Nc1c(C)cccc1C (stereo unspecified) , RAC-alpha serine/threonine-protein kinase (Homo sapiens), activity change = inactive

Summary: `Nc1nc(C23CC4CC(CC(C4)C2)C3)cs1` , RAC-alpha serine/threonine-protein kinase (Homo sapiens), activity change = inactive

----------
Target: RAC-alpha serine/threonine-protein kinase (Homo sapiens) (UniProt P31749)
Test: HTS Assay for Inhibitors of Akt Phophorylation: Primary Screen; on activity change: on the % scale 0 is the no-effect control and ±100 the full control effect
Settings: Neuro2A IGF-stimulated pAkt S473 HTRF, 20 min; at 50 µM
Among all 360,000 compounds or so, about 1,100 (0.31%) were called active. Cut-off read from the data, not from the text of the source: active = activity change below about -80%; inconclusive = mostly about -51% to -80%; inactive = weaker than that. The full list was thinned out, with actives kept by preference.
Please reply with one of these outcomes: true (1) for active, false (0) for inactive

Per the records of this test, what outcome belongs to `Cc1cccc(NC(=O)CSC(N)=O)c1C` ?
true (1)

Per the records of this test, what outcome belongs to `Cc1nc2c(c(C)nn2-c2ccccc2)c(C)c1C` ?
false (0)

Per the records of this test, what outcome belongs to `O=C(CN1C(=O)CCS(=O)(=O)c2ccccc21)NCc1ccc(F)cc1` ?
false (0)

Per the records of this test, what outcome belongs to `O=C(C[C@H]1CC[C@H]2[C@@H](COC[C@H](O)CN2C(=O)c2ccccn2)O1)N1CCN(c2ccccc2)CC1` ?
false (0)

Per the records of this test, what outcome belongs to `Cc1ccc(C(=O)Nc2c(-c3ccccc3)[nH][nH]c2=O)cc1` ?
false (0)

----------
Target: RAC-alpha serine/threonine-protein kinase (Homo sapiens) (UniProt P31749)
Assay: HTS Assay for Inhibitors of Akt Phophorylation: Primary Screen; on activity change: on the % scale 0 is the no-effect control and ±100 the full control effect
Details: Neuro2A IGF-stimulated pAkt S473 HTRF, 20 min; at 50 µM
In all, about 360,000 compounds went through this assay and about 1,100 (0.31%) were called active. Rule as the data show it: active = activity change below about -80%; inconclusive = mostly about -51% to -80%; inactive = weaker than that. Shown is part of a subset that was picked to be rich in actives.
Please reply with one of these outcomes: active, inactive

# example entries with known answers
>>> label_value("OCCC#Cc1ccc(N2C(c3ccsc3)=Cc3ccc(F)cc3C2c2c[nH]c3ccccc23)cc1 (configuration not stated)")
"inactive"
>>> label_value("Cc1cc(F)ccc1NC(=O)C(C)n1c2ccccc2c2nc(=O)cc(C)n21 (configuration not stated)")
"inactive"
>>> label_value("CC(C)(C)n1nc2c(c1NC(=O)c1ccc(S(=O)(=O)N3CCCC3)cc1)CS(=O)C2 (configuration not stated)")
"inactive"
>>> label_value("CC(=O)N1CCC(C(=O)Nc2nc(-c3ccccc3)ns2)CC1")
"inactive"
>>> label_value("Cc1cccc(-n2c(Cc3cc(=O)[nH]c(=O)[nH]3)nnc2SC(C)C)c1")
"inactive"
>>> label_value("Cc1ccc2c(c1)N(C(=O)CCC(=O)NCc1cccnc1)CCO2")
"inactive"
>>> label_value("CC(NCCO)C(=O)C12CC3CC(CC(C3)C1)C2 (configuration not stated)")
"inactive"
>>> label_value("O=C(C(=O)N1CCC(c2ccccc2)CC1)c1ccccc1")
"inactive"

Per the records of this test, what outcome belongs to CCC(c1nc2ccccc2[nH]1)n1c(=O)c(-c2cccs2)nc2ccccc21 (configuration not stated) ?
inactive

Per the records of this test, what outcome belongs to `CCCCNC(=S)N/N=C1\CCCCc2ccccc21` ?
inactive

Per the records of this test, what outcome belongs to O=C1Nc2ccccc2-n2nnnc2C1N1CCN(c2cccc(C(F)(F)F)n2)CC1 (configuration not stated) ?
inactive

Per the records of this test, what outcome belongs to `O=C(C(=O)N1CCN(c2ccccc2)CC1)c1ccc2c(c1)OCO2` ?
inactive

Per the records of this test, what outcome belongs to Cc1cccc(N(C(=O)c2csnn2)C(C(=O)NCc2ccccc2)c2ccncc2)c1 (configuration not stated) ?
inactive

Per the records of this test, what outcome belongs to `FC(F)(F)c1cc(-c2cccs2)nc(NCc2ccco2)n1` ?
inactive

Per the records of this test, what outcome belongs to `O=C(O)Cc1csc(-c2cccc(Oc3ccccc3)c2)n1` ?
inactive

Per the records of this test, what outcome belongs to `CC(=O)C[C@@H]1OC[C@H](C)N1S(=O)(=O)c1ccc(C)cc1` ?
inactive

Per the records of this test, what outcome belongs to `Cc1cccc(C)c1NC(=O)CCS(=O)(=O)c1cccc2nsnc12` ?
active

Per the records of this test, what outcome belongs to `Cc1ccc(Cl)c(OCC(=O)N2CCc3ccccc3C2)c1` ?
inactive

Per the records of this test, what outcome belongs to COc1ccc(C(=O)C(OP(=O)(OC)OC)c2ccccc2OC)cc1 (configuration not stated) ?
inactive

Per the records of this test, what outcome belongs to `COc1nc(NCc2ccc(Cl)cc2)nc(OC)n1` ?
inactive

Per the records of this test, what outcome belongs to `N#Cc1nc(Cc2cccc3ccccc23)oc1NCc1ccc2c(c1)OCO2` ?
inactive

Per the records of this test, what outcome belongs to CC(OC(=O)c1c(F)cccc1F)C(=O)NCCC1=CCCCC1 (configuration not stated) ?
inactive

Per the records of this test, what outcome belongs to CCC(c1nnnn1C1CCCC1)N(Cc1cccs1)Cc1cc2cccc(C)c2[nH]c1=O (configuration not stated) ?
active

Per the records of this test, what outcome belongs to `CC(=O)c1c(C)[nH]c(C(=O)N2CCN(S(=O)(=O)c3ccc(F)c(F)c3)CC2)c1C` ?
inactive

Per the records of this test, what outcome belongs to `Cc1cc(Cl)ccc1OCc1nc(-c2ccncc2)no1` ?
inactive

----------
Molecular target: RAC-alpha serine/threonine-protein kinase (Homo sapiens)
Test: HTS Assay for Inhibitors of Akt Phophorylation: Primary Screen; on activity change: on the % scale 0 is the no-effect control and ±100 the full control effect
Settings: Neuro2A IGF-stimulated pAkt S473 HTRF, 20 min; at 50 µM
The campaign covered roughly 360,000 compounds. About 1,100 (0.31%) were called active. Cut-off read from the data, not from the text of the source: active = activity change below about -80%; inconclusive = mostly about -51% to -80%; inactive = weaker than that. Many of the other results were omitted from the sample, so actives are more common in it than they were.
Please reply with one of these outcomes: active, inactive

Per the records of this test, what outcome belongs to CC1(C(=O)NCc2ccccc2)CSCC(=O)N1CCCN1CCOCC1 (stereo not given) ?
inactive

Per the records of this test, what outcome belongs to O=C1c2oc3ccccc3c(=O)c2C(c2cccc(O)c2)N1c1ccccn1 (stereo not given) ?
inactive

----------
Biological target: RAC-alpha serine/threonine-protein kinase (Homo sapiens) (UniProt P31749)
Experiment: HTS Assay for Inhibitors of Akt Phophorylation: Primary Screen; on activity change: on the % scale 0 is the no-effect control and ±100 the full control effect
Conditions: Neuro2A IGF-stimulated pAkt S473 HTRF, 20 min; at 50 µM
The campaign covered roughly 360,000 compounds. About 1,100 (0.31%) were called active. Rule as the data show it: active = activity change below about -80%; inconclusive = mostly about -51% to -80%; inactive = weaker than that. The entries come from a sample that favours actives as a whole.
Please reply with one of these outcomes: class 1 = active, class 0 = inactive

# example entries with known answers
>>> label_value("CC1=NN(C(C)C)C(=O)C1")
"class 1"
>>> label_value("Cc1ccc(N(Cc2ccccc2O)C(=O)c2ccccc2F)cc1")
"class 0"
>>> label_value("CCOC(=O)[C@]12CCCC=C1N(CCC1=CCCCC1)C(=O)[C@H](CC(=O)NCCCCc1ccccc1)C2")
"class 0"
>>> label_value("O=C(Cc1cccs1)Nc1ccc([N+](=O)[O-])cc1")
"class 0"
>>> label_value("Cc1ccnc(NC(=O)CCC(=O)N(CC(=O)NCc2ccccc2)Cc2ccco2)c1")
"class 0"
>>> label_value("CS(=O)(=O)N1CCN=C1SCc1ccc(F)cc1")
"class 0"

As a next step, examine the compound that follows.
Per the records of this test, what outcome belongs to `Cc1ccc(Nc2nc(-c3ccc(O)cc3O)cs2)nc1` ?
class 0
